pIC50: −log10 of the molar value.
Target or system P2X purinoceptor 7 (Homo sapiens, UniProt Q99572): recorded pIC50 listed per item.
Reported Property: pIC50

# count of solved cases: 4
CN1C(=O)N(CCN2CCOCC2)CC1C(=O)NCc1ccc(Cl)cc1Cl (stereo unspecified): 7.10
Cc1nn(-c2ccccc2Cl)c(C)c1CC(=O)NCc1ccc(F)cc1Cl: 7.00
O=C1C(=O)N(c2ccccc2N2CCCC2)CCN1Cc1ccc(F)cc1Cl: 7.40
CCN1C(=O)NC[C@H]1C(=O)NCc1ccc(Cl)cc1Cl: 7.90

I: CCN1[C@H](C(=O)NCc2cccc(C(F)(F)F)c2Cl)CCS1(=O)=O
II: O=C(c1cccc(Cl)c1Cl)N1CCn2cc(-c3ccccc3)nc2C1
Qu. Select the item whose pIC50 value is smaller, choosing between I and II . Record your answer as the label of the chosen record.
Ans. II
(II: 6.20, I: 8.00)

* * *

# Assayed Target: P2X purinoceptor 7 (Homo sapiens)
# Sequence (Q99572 whole entry): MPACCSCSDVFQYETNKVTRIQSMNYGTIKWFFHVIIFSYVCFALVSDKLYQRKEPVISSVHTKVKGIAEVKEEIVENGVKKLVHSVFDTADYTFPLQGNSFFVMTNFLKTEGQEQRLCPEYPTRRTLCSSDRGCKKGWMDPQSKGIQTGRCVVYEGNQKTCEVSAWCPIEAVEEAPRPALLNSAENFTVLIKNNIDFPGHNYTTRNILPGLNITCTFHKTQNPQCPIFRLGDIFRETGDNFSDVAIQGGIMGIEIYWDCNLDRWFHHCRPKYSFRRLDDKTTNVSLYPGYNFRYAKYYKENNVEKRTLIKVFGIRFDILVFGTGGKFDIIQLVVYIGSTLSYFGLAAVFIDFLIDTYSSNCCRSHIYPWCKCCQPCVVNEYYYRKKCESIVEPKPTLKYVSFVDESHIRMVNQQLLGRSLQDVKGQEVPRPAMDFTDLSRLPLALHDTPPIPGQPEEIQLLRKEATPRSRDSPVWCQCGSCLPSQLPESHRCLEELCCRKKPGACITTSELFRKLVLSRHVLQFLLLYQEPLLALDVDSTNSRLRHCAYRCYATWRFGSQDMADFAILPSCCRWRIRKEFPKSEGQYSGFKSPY
# Assay Comment: SUPPLEMENTARY: Inhibition of human P2X7 receptor assessed as inhibition of ethidium bromide accumulation. Same assay as CHEMBL1103860
pIC50: −log10 of the molar value.
Reported Property: pIC50

# count of solved cases: 4
O=C(Cc1cnn(-c2ccc(F)cc2)c1Br)NCc1ccc(F)cc1Cl: 6.40
CN1C(=O)NC[C@H]1C(=O)NCc1c(Cl)cc(Cl)cc1Cl: 8.80
CN1C(=O)CC[C@H]1C(=O)NCc1cccc(C(F)(F)F)c1F: 7.60
Cc1c(N2CCOCC2)cccc1N1CCN(C(=O)c2c(Cl)cc(Cl)cc2Cl)CC1=O: 7.40

1: O=C(c1cccc(Cl)c1Cl)N1CCn2c(nnc2-c2cccnn2)C1
2: O=C(c1c(Cl)cc(Cl)cc1Cl)N1CCN(c2cc(N3CCOCC3)ccc2Cl)C(=O)C1
3: O=C(c1ccc(Cl)c(F)c1Cl)N1CCn2c(nnc2-c2cnccn2)C1
Qu. Which order do these items take when sorted by rising pIC50? List them. Returns: the labels listed in the requested order.
Ans. 1, 2, 3
(1: 7.50, 2: 8.00, 3: 8.70)

* * *

Target or system P2X purinoceptor 7 (Homo sapiens, UniProt Q99572): recorded IC50 listed per item.
Reported Property: IC50 (nM)

O=C1C(=O)N(c2cccc(Cl)c2Cl)CCN1Cc1ccccc1Cl: 200

1: Cc1cc(-c2nnc3n2CCN(C(=O)c2cccc(Cl)c2Cl)C3)no1
2: CCN(CC)CCn1nc(C)c(CC(=O)NCc2ccc(F)cc2Cl)c1C
3: Cc1nn(-c2ccc(N3CCCC3=O)cc2)c(C)c1CC(=O)NCc1ccc(F)cc1Cl
Qu. Arrange these compounds by their IC50, starting with the largest number. Returns: the labels listed in the requested order.
Ans. 2, 3, 1
(2: 200 nM, 3: 63.1 nM, 1: 25.1 nM)
